Cited source for all entries: paper PMC2041813

biological target: TcTIM C40A (Trypanosoma cruzi, UniProt P52270, C40A); experiment: Inhibition of activity of TcTIM C40A mutant; details: half-maximal inhibition of the initial phase (biphasic response), read-out: IC50, concentration of DTDA that induces 50% inhibition
Experimental Readout: IC50 (µM)
Write the answer as a number in µM, unit excluded.

Bench note: what IC50 did Nc1ccccc1SSc1ccccc1N show?
1.53

----------
biological target: TcTIM C118V (Trypanosoma cruzi, UniProt P52270, C118V); test: Inhibition of activity of TcTIM C118V mutant; settings: 2 h, 36°C, 10% DMSO, read-out: IC50, concentration of DTDA that induces 50% inhibition
Experimental Readout: IC50 (nM)
Write the answer as a number in nM, unit excluded.

Bench note: what IC50 did Nc1ccccc1SSc1ccccc1N show?
208

----------
target: TIM from H. sapiens (HTIM) (Homo sapiens); construct: made in house; host or cells: Escherichia coli; assay: Inhibition of activity of human TIM after 2 h incubation; assay type: biochemical; conditions: 2 h, 36°C, 10% DMSO; read-out: concentration for fifty percent inhibition of HTIM activity
Sequence (P60174 whole entry): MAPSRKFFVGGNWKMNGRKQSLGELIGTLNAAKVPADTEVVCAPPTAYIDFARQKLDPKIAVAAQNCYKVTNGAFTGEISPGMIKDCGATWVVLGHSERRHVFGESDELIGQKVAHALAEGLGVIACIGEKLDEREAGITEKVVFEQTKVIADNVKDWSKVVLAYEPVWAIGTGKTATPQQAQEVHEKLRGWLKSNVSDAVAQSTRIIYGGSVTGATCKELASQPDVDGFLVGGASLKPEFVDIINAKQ
Experimental Readout: pIC50
Answer as the number alone; pIC50 is minus log10 of concentration in mol/L.

Bench note: what pIC50 did Nc1ccccc1SSc1ccccc1N show?
4.01
